# targetDesc: Estrogen receptor (Homo sapiens) (UniProt P03372)
# Sequence (P03372 whole entry, looked up): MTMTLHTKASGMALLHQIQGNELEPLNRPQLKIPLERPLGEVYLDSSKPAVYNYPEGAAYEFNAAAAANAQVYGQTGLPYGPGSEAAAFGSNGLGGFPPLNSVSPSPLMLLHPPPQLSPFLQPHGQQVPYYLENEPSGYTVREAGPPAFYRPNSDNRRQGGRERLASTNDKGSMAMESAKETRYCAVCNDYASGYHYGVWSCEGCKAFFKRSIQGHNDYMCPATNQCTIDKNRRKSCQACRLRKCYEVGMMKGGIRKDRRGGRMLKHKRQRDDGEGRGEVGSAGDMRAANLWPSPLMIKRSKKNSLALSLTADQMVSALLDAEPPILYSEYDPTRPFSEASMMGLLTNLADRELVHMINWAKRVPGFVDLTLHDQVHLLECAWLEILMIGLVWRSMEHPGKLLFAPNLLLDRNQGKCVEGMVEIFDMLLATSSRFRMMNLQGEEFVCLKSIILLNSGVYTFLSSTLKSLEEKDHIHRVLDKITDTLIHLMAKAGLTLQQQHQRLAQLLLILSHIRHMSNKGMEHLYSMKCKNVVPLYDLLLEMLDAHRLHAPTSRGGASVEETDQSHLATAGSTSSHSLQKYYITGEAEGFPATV
# experimentalDetails: qHTS assay to identify small molecule antagonists of the estrogen receptor alpha (ER-alpha) signaling pathway using the BG1 cell line in the presence of 0.1 nM 17-beta-estradiol (AID 1259244); further: nearly all actives have a fitted effect of over 50% in size
# setupConditions: VM7Luc4E2 (BG1) ERE-luciferase, antagonist mode, 0.1 nM E2, 22 h; series mostly up to 92.4 µM
Results filed as inconclusive are left out. Activity calls are given as the source filed them. The call rests on the fitted dose curve; in most records, active means well fitted inhibition curve with a large enough effect in the repeat runs; inconclusive means weak or mixed curves; inactive means no such curve, though single readings can be large or run the other way.
Classes used: T = active, F = inactive

{"compound": "O=C1C=CC(=O)c2ccccc21", "classAssignment": "T"}
{"compound": "Cc1c(Cl)c(=O)oc2cc(OP(=O)(OCCCl)OCCCl)ccc12", "classAssignment": "F"}
{"compound": "CCc1nn(C)c(C(=O)NCc2ccc(C(C)(C)C)cc2)c1Cl", "classAssignment": "T"}
{"compound": "c1ccc2c(c1)[nH]c1cnccc12", "classAssignment": "F"}
{"compound": "CC(=O)Nc1ccc2c(c1)Cc1ccccc1-2", "classAssignment": "F"}
{"compound": "BrCC(Br)c1ccccc1 (stereo not given)", "classAssignment": "F"}
{"compound": "CCOC(=O)C1(c2ccccc2)CCN(CCC(C#N)(c2ccccc2)c2ccccc2)CC1", "classAssignment": "F"}
{"compound": "COC12CC[C@@]3(C[C@@H]1C(C)(O)C(C)(C)C)[C@H]1Cc4ccc(O)c5c4[C@@]3(CCN1CC1CC1)[C@H]2O5 (stereo not given in full)", "classAssignment": "T"}
{"compound": "O=C(CCCN1CCC2(CC1)C(=O)NCN2c1ccccc1)c1ccc(F)cc1", "classAssignment": "T"}
{"compound": "ClC1=C(Cl)[C@]2(Cl)[C@@H]3[C@@H]4C[C@@H]([C@H]5O[C@@H]45)[C@@H]3[C@@]1(Cl)C2(Cl)Cl", "classAssignment": "T"}
{"compound": "O=C(Cl)c1ccc(Cl)cc1", "classAssignment": "F"}
{"compound": "CCCCCCCCCCCCCCCCCCn1cc[n+](C)c1", "classAssignment": "T"}
{"compound": "ClC(Cl)=C(c1ccc(Cl)cc1)c1ccc(Cl)cc1", "classAssignment": "F"}
{"compound": "Cc1cc(C(F)(C(F)(F)F)C(F)(F)F)ccc1NC(=O)c1cccc(I)c1C(=O)NC(C)(C)CS(C)(=O)=O", "classAssignment": "F"}
{"compound": "COC[C@H](C)N(C(=O)CCl)c1c(C)csc1C", "classAssignment": "F"}
{"compound": "N#Cc1ccc(O)cc1", "classAssignment": "F"}
{"compound": "ClCc1ccc(Cl)cc1Cl", "classAssignment": "F"}
{"compound": "CC(=[OH+])/C=C(/C)[O-].CC(=[OH+])/C=C(\\C)[O-].CC(=[OH+])/C=C(\\C)[O-].[Fe]", "classAssignment": "F"}
{"compound": "Nc1ccc(Cl)cc1C(=O)c1ccccc1", "classAssignment": "F"}
{"compound": "CN(CCCC(=O)c1cccnc1)N=O", "classAssignment": "F"}
{"compound": "CCCCCCCCCCCCBr", "classAssignment": "F"}
{"compound": "Oc1ccc(C2(c3ccc(O)cc3)c3ccccc3-c3ccccc32)cc1", "classAssignment": "T"}
{"compound": "O=CC(Br)(Br)Br", "classAssignment": "F"}
{"compound": "ClCc1ccccc1CCl", "classAssignment": "F"}
{"compound": "Nc1ccc([N+](=O)[O-])cc1Cl", "classAssignment": "F"}
